tested-on: human RGS14 RGS-box (wild-type) (Homo sapiens, UniProt O43566)
Construct: human RGS14 RGS-box (aa 46–195 of UniProt O43566); host or cells: E. coli
Sequence (O43566 46-195): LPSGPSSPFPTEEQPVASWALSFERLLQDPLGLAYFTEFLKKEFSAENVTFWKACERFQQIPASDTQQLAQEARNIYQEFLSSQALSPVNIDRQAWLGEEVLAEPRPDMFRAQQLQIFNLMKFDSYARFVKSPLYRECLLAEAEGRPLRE
method-description: Transcreener GDP RGScreen fluorescence polarization assay of RGS14 RGS-box GAP activity on Gαi1(DM)
Assay type: biochemical
run-conditions: wild-type RGS14 RGS-box GAP activity, Gαi1(DM), Transcreener GDP RGScreen; read-out: RGS14 pIC50 (converted)
List of IC50 values.
measure-name: IC50

| compound | tested-on | measure-name | recorded-measurement |
| --- | --- | --- | --- |
| CCn1c(SC(C)C(=O)c2ccc3c(c2)CCN3C(C)=O)nc2ccccc21 (stereo not shown) | human RGS14 RGS-box (wild-type) (Homo sapiens, UniProt O43566) | IC50 | > 1000 µM |
| CCn1c(SC(C)C(=O)c2ccc(Br)cc2)nc2cc(S(N)(=O)=O)ccc21 (stereo not shown) | human RGS14 RGS-box (wild-type) (Homo sapiens, UniProt O43566) | IC50 | > 1000 µM |
| COc1ccc(-n2c(SC(C)C(=O)c3c(F)cc(F)cc3F)nc3ccccc32)cc1 (stereo not shown) | human RGS14 RGS-box (wild-type) (Homo sapiens, UniProt O43566) | IC50 | > 1000 µM |
| COc1ccc2[nH]c(SC(C)C(=O)c3c(F)cc(F)cc3F)nc2c1 (stereo not shown) | human RGS14 RGS-box (wild-type) (Homo sapiens, UniProt O43566) | IC50 | 63.1 µM |
| C1=C(c2cc3ccccc3o2)Nn2c(nnc2C2COc3ccccc3O2)S1 (stereo not shown) | human RGS14 RGS-box (wild-type) (Homo sapiens, UniProt O43566) | IC50 | 14.5 µM |
| COc1ccc2nc(SC(C)C(=O)Nc3cc(F)ccc3F)[nH]c2c1 (stereo not shown) | human RGS14 RGS-box (wild-type) (Homo sapiens, UniProt O43566) | IC50 | > 1000 µM |
| COc1ccc2nc(SC(C)C(=O)c3cccc(F)c3)[nH]c2c1 (stereo not shown) | human RGS14 RGS-box (wild-type) (Homo sapiens, UniProt O43566) | IC50 | > 1000 µM |
| O=C(O)C[C@@H]1Sc2nnc(CCC3CCCCC3)n2N=C1c1ccccc1 | human RGS14 RGS-box (wild-type) (Homo sapiens, UniProt O43566) | IC50 | 38 µM |
| CCOc1ccc(C(=O)C(C)Sc2nc3cc(S(N)(=O)=O)ccc3n2CC)cc1 (stereo not shown) | human RGS14 RGS-box (wild-type) (Homo sapiens, UniProt O43566) | IC50 | > 1000 µM |
| CC1Sc2nnc(Cc3ccc(Br)cc3)n2N=C1c1ccc(Cl)cc1 (stereo not shown) | human RGS14 RGS-box (wild-type) (Homo sapiens, UniProt O43566) | IC50 | 21.4 µM |
| O=C(O)C[C@@H]1Sc2nnc(-c3ccco3)n2N=C1c1ccc(F)cc1 | human RGS14 RGS-box (wild-type) (Homo sapiens, UniProt O43566) | IC50 | 93.3 µM |
| COc1ccc(OCc2nnc3n2N=C(c2ccc(NC(C)=O)cc2)CS3)cc1 | human RGS14 RGS-box (wild-type) (Homo sapiens, UniProt O43566) | IC50 | > 1000 µM |
| Cc1ccc(C2=Nn3c(COc4ccccc4)nnc3SC2)c(C)c1 | human RGS14 RGS-box (wild-type) (Homo sapiens, UniProt O43566) | IC50 | 4.07 µM |
| COCCn1c(SC(C)C(=O)c2ccc(OC)cc2)nc2ccccc21 (stereo not shown) | human RGS14 RGS-box (wild-type) (Homo sapiens, UniProt O43566) | IC50 | > 1000 µM |
| C[C@H]1Sc2nnc(Cc3ccc(Br)cc3)n2N=C1c1ccc(NS(C)(=O)=O)cc1 | human RGS14 RGS-box (wild-type) (Homo sapiens, UniProt O43566) | IC50 | 72.4 µM |
| CCn1c(SC(C)C(=O)c2ccc3c(c2)CCC3)nc2cc(S(N)(=O)=O)ccc21 (stereo not shown) | human RGS14 RGS-box (wild-type) (Homo sapiens, UniProt O43566) | IC50 | > 1000 µM |
| COc1ccccc1C1=CSc2nnc(COc3ccccc3)n2N1 | human RGS14 RGS-box (wild-type) (Homo sapiens, UniProt O43566) | IC50 | 19.1 µM |
| COc1ccc2nc(SC(C)C(=O)c3ccco3)[nH]c2c1 (stereo not shown) | human RGS14 RGS-box (wild-type) (Homo sapiens, UniProt O43566) | IC50 | > 1000 µM |
| O=C(O)CC1Sc2nnc(C3CCCO3)n2N=C1c1ccc(Cl)cc1 (stereo not shown) | human RGS14 RGS-box (wild-type) (Homo sapiens, UniProt O43566) | IC50 | 56.2 µM |
| CC(C)(C)c1ccc(C2=Nn3c(nnc3-c3ccco3)SC2)cc1 | human RGS14 RGS-box (wild-type) (Homo sapiens, UniProt O43566) | IC50 | 56.2 µM |
| Cc1ccc2[nH]c(SC(C)C(=O)c3c(F)cc(F)cc3F)nc2c1 (stereo not shown) | human RGS14 RGS-box (wild-type) (Homo sapiens, UniProt O43566) | IC50 | > 1000 µM |
| COc1cccc(C2=Nn3c(COc4ccc(Cl)cc4)nnc3SC2)c1 | human RGS14 RGS-box (wild-type) (Homo sapiens, UniProt O43566) | IC50 | 191 µM |
| CCCC(=O)Nc1ccc(C(=O)C(C)Sc2nc3ccc(OC)cc3[nH]2)cc1 (stereo not shown) | human RGS14 RGS-box (wild-type) (Homo sapiens, UniProt O43566) | IC50 | > 1000 µM |
| COc1ccc(OCc2nnc3n2N=C(c2ccc(OC)c(OC)c2)CS3)cc1 | human RGS14 RGS-box (wild-type) (Homo sapiens, UniProt O43566) | IC50 | 2.29 µM |
| COc1ccc(C(=O)C(C)Sc2nc3ccc(OC)cc3[nH]2)c(OC)c1 (stereo not shown) | human RGS14 RGS-box (wild-type) (Homo sapiens, UniProt O43566) | IC50 | > 1000 µM |
| COC(=O)C1Sc2nnc(COc3ccc(F)cc3)n2N=C1c1cc2ccccc2o1 (stereo not shown) | human RGS14 RGS-box (wild-type) (Homo sapiens, UniProt O43566) | IC50 | 100 µM |
| CC(Sc1n[nH]c2nc3ccccc3n12)C(=O)c1c(F)cc(F)cc1F (stereo not shown) | human RGS14 RGS-box (wild-type) (Homo sapiens, UniProt O43566) | IC50 | ~200 µM |
| COc1ccc2nc(SCC(=O)c3ccc(O)cc3)[nH]c2c1 | human RGS14 RGS-box (wild-type) (Homo sapiens, UniProt O43566) | IC50 | > 1000 µM |
| CCc1ccc(C(=O)C(C)Sc2nc3cc(S(N)(=O)=O)ccc3n2CC)cc1 (stereo not shown) | human RGS14 RGS-box (wild-type) (Homo sapiens, UniProt O43566) | IC50 | > 1000 µM |
| COc1ccc2nc(SC(C)C(=O)c3ccc(F)c(F)c3)[nH]c2c1 (stereo not shown) | human RGS14 RGS-box (wild-type) (Homo sapiens, UniProt O43566) | IC50 | > 1000 µM |
| COc1ccc2nc(SC(C)C(=O)c3ccc(Br)cc3)[nH]c2c1 (stereo not shown) | human RGS14 RGS-box (wild-type) (Homo sapiens, UniProt O43566) | IC50 | > 1000 µM |
| COc1ccc2nc(SC(C)C(=O)c3ccc(C(C)(C)C)cc3)[nH]c2c1 (stereo not shown) | human RGS14 RGS-box (wild-type) (Homo sapiens, UniProt O43566) | IC50 | > 1000 µM |
| COc1ccc2nc(SC(C)C(=O)c3ccc(NC(=O)C(C)C)cc3)[nH]c2c1 (stereo not shown) | human RGS14 RGS-box (wild-type) (Homo sapiens, UniProt O43566) | IC50 | > 1000 µM |
| CCn1c(SC(C)C(=O)c2cccc(Cl)c2)nc2cc(S(N)(=O)=O)ccc21 (stereo not shown) | human RGS14 RGS-box (wild-type) (Homo sapiens, UniProt O43566) | IC50 | > 1000 µM |
| Cc1ccc(C2=Nn3c(nnc3C3CC3)SC2CC(=O)O)cc1 (stereo not shown) | human RGS14 RGS-box (wild-type) (Homo sapiens, UniProt O43566) | IC50 | 275 µM |
| CCOc1ccc2[nH]c(SCCC(=O)c3ccc(F)cc3)nc2c1 | human RGS14 RGS-box (wild-type) (Homo sapiens, UniProt O43566) | IC50 | > 1000 µM |
| COc1ccc2nc(SCC(=O)c3ccc(F)cc3)[nH]c2c1 | human RGS14 RGS-box (wild-type) (Homo sapiens, UniProt O43566) | IC50 | > 1000 µM |
